- STUDY_SYSTEM: Alkaline phosphatase, tissue-nonspecific isozyme (Homo sapiens)
- TEST: human TNAP enzyme activators, primary screen, biochemical, luminescent, no phosphate acceptor, uHTS (AID 1001)
- RUN_PARAMETERS: purified TNAP, luminescent activation assay, at 20 µM, active compounds read high
Out of some 200,000 compounds screened, about 50 (0.03%) were called active. Many of the other results were omitted from the sample, so actives are more common in it than they were. Results with a measured potency or affinity are listed apart.
EXPERIMENTAL_READOUT: activation fold

1. COc1ccc2[nH]c(=O)c(CN(CCN3CCCC3)C(=O)Nc3ccccc3Cl)cc2c1; 1.1
2. Cc1cccc(-c2nsc(SCC(=O)N3CCCC3)n2)c1; 1.1
3. CCn1c(CNc2ccc(C(=O)O)cc2)nc2ccccc21; 1.1
4. Cn1nc(CC(=O)NC2CCCCC2)c2ccccc2c1=O; 1.1
5. CC(C)CNC(=O)C(=O)NNC(=O)c1ccco1; 1.1
6. CCOC(=O)C1(Cc2cccc(OC)c2)CCN(Cc2cnc(C)s2)CC1; 1
7. Cc1cc(NC(=O)CCC(=O)N(Cc2ccco2)C(C(=O)NC2CCCCC2)c2cccs2)no1 (stereo not given); 1.1
8. COC(=O)Cn1c(CN2CCC(Cc3ccccc3)CC2)nc2c1c(=O)n(C)c(=O)n2C; 1.1
9. CCOC(=O)c1ccc(NCc2ccc3c(c2)OCO3)cc1; 1
10. Cn1cc(Cl)c(C(=O)NC2CCCCCC2)n1; 1.2
11. Cc1cc2cc3c(cc2nc1SCC(=O)O)CCC3; 1
12. CCOc1ccc(-n2cc(-c3ccccc3)c3c(N4CCOCC4)ncnc32)cc1; 1.1
13. O=C(CSc1nnc(-c2ccccc2)n1-c1ccc(Cl)cc1)N/N=C/c1ccco1; 1
14. CC(C)CCC(C(=O)O)C(C)CC(=O)NNC(=O)c1ccco1 (stereo not given); 1.1
15. CN(CCO)C(=O)CCC(=O)Nc1ccc(S(N)(=O)=O)cc1; 1.1
16. COc1cc(OC)cc(-c2nnc(Nc3nc4c(F)cccc4s3)o2)c1; 1.2
17. CN1CCN(C(c2ccccn2)c2cc(Cl)c3cccnc3c2O)CC1 (stereo not given); 2.5
18. CCOc1ccc(N(C(=O)c2cnsn2)C(C(=O)NC2CCCCC2)c2ccncc2)cc1 (stereo not given); 1.2
19. O=C(NCCCn1ccnc1)/C(=C\c1cccnc1)NC(=O)c1ccccc1F; 1
20. O=C(NNC(=O)C(c1ccccc1)c1ccccc1)c1ccccn1; 1.5
21. Cc1c2cc(O)c(=O)cc-2oc2cc(O)c(O)cc12; 0.4
22. COc1ccc(Cl)cc1NC(=O)CN1CCC(n2nnc3cc(F)ccc32)CC1; 1.5
23. O=[N+]([O-])c1ccccc1-c1cc(-c2ccccc2O)n[nH]1; 2.1
24. Cc1c(Cl)c(C(=O)NNC(=S)Nc2ccc(F)cc2)nn1C; 2.7
25. O=C(NCCCN1CCCC1=O)c1ccc(OCc2ccccc2)cc1; 1.1
26. COCCNC(=S)N/N=C(\C)c1ccccc1F; 1
27. CC(=O)c1sc(NC(=O)C(C)(C)C)nc1C; 1.1
28. Cn1cc(Cl)c(C(=O)NC2CCCC2)n1; 1.1
29. CCOC(=O)N1CCC(NC(=O)CSc2cc(=O)n(CC)c3ccccc23)CC1; 1.2
30. CCCC(Oc1ccc(Br)cc1)c1nc2c3cc(OC)c(OC)cc3nc(=S)n2[nH]1 (stereo not given); 1.2
31. Cc1cccc(C)c1NC(=O)C1(N(C(=O)c2ccccn2)c2ccc(O)cc2)CCCCC1; 1
32. CCOc1ccccc1-c1c2cc(O)c(=O)cc-2oc2cc(O)c(O)cc12; 0.6
33. CCOc1cc(-n2cnnn2)c(OCC)cc1NC(=O)c1cnccn1; 1.1
34. Cc1ccc(NC(=O)NC2(C(=O)NCc3ccccc3)CCCCC2)cc1; 1.1
35. CCOC(=O)/C(N=Nc1sc(C(=O)OCC)c(C)c1C(=O)OCC)=C(\C)O; 1
36. CCCCN1CNC(=S)N(Cc2ccccc2)C1; 0.9
37. O=C(CSc1nnc(-c2ccncc2)n1Cc1ccccc1)NCCc1ccccc1; 1.2
38. Cc1cc(C)c(-c2csc(NC(=O)C3=NN(c4ccccc4)C(=O)CC3)n2)c(C)c1; 0.9
39. CCC(C)NC(=O)CSC1=Nc2ccccc2C2=NC(c3ccccc3)C(=O)N12 (stereo not given); 1
40. CCOC(=O)CSc1nnc(NCC(=O)OC(C)C)c(=O)[nH]1; 1.2
41. O=C(NNc1ccccn1)C(=O)NNS(=O)(=O)c1ccc(F)cc1; 2.7
42. COc1ccc(Cl)cc1NC(=O)CN1CCC(n2nnc3ccccc32)CC1; 1.1
43. COCCNC(=S)N/N=C(\C)c1ccccc1OC; 1.1
44. Cn1nc(CC(=O)NC2CCCCCC2)c2ccccc2c1=O; 1.1
45. Cc1ccc(O)c(-c2cc(-c3ccccc3[N+](=O)[O-])[nH]n2)c1; 2.3
